molecular target: Melatonin receptor (Gallus gallus, UniProt P49288+P51050+P49285); assay: Binding affinity towards melatonin receptor, determined in chicken brain membranes using [2-125I]melatonin; type: cell membranes, Membrane
Please note: Ki exactly at 50 nM is no (0). Only values below 50 nM get yes (1).

# compound, test.system, category.label
measured = [
    ("CCCC(=O)NCC1CCCCc2c1c1ccccc1n2C (stereo unspecified)", "Melatonin receptor (Gallus gallus, UniProt P49288+P51050+P49285)", "no (0)"),
    ("COc1ccc2c(c1)c1c(n2C)CCCC1CNC(C)=O (single isomer, unassigned; (-))", "Melatonin receptor (Gallus gallus, UniProt P49288+P51050+P49285)", "yes (1)"),
    ("CCC(=O)NCC1CCc2c1c1cc(OC)ccc1n2C (single isomer, unassigned; (+))", "Melatonin receptor (Gallus gallus, UniProt P49288+P51050+P49285)", "no (0)"),
    ("CC(=O)NCC1CCCc2c1c1cc(OC(F)(F)F)ccc1n2C (stereo unspecified)", "Melatonin receptor (Gallus gallus, UniProt P49288+P51050+P49285)", "no (0)"),
    ("CCCC(=O)NCC1CCc2c1c1cc(OC)ccc1n2C (stereo unspecified)", "Melatonin receptor (Gallus gallus, UniProt P49288+P51050+P49285)", "yes (1)"),
    ("CCC(=O)NCC1CCc2c1c1cc(OC)ccc1n2C (single isomer, unassigned; (-))", "Melatonin receptor (Gallus gallus, UniProt P49288+P51050+P49285)", "yes (1)"),
    ("COc1ccc2c(c1)c1c(n2C)CCC1CNC(C)=O (stereo unspecified)", "Melatonin receptor (Gallus gallus, UniProt P49288+P51050+P49285)", "no (0)"),
    ("Cc1ccc2c(c1)c1c(n2C)CCCC1CNC(=O)C1CCC1 (stereo unspecified)", "Melatonin receptor (Gallus gallus, UniProt P49288+P51050+P49285)", "no (0)"),
    ("Cn1c2c(c3cc(OC(F)(F)F)ccc31)C(CNC(=O)C1CCC1)CCC2 (stereo unspecified)", "Melatonin receptor (Gallus gallus, UniProt P49288+P51050+P49285)", "no (0)"),
    ("Cn1c2c(c3ccccc31)C(CNC(=O)C1CCC1)CC2 (stereo unspecified)", "Melatonin receptor (Gallus gallus, UniProt P49288+P51050+P49285)", "no (0)"),
    ("CCC(=O)NCC1CCc2c1c1ccccc1n2C (stereo unspecified)", "Melatonin receptor (Gallus gallus, UniProt P49288+P51050+P49285)", "no (0)"),
    ("CC(=O)NCC1CCCc2c1c1ccccc1n2C (stereo in doubt; 9a)", "Melatonin receptor (Gallus gallus, UniProt P49288+P51050+P49285)", "no (0)"),
    ("CCC(=O)NCC1CCCc2c1c1cc(CC)ccc1n2C (stereo unspecified)", "Melatonin receptor (Gallus gallus, UniProt P49288+P51050+P49285)", "yes (1)"),
    ("CCCCC(=O)NCC1CCc2c1c1ccccc1n2C (stereo unspecified)", "Melatonin receptor (Gallus gallus, UniProt P49288+P51050+P49285)", "no (0)"),
    ("COc1ccc2c(c1)c1c(n2C)CCCC1CNC(=O)C1CCC1 (stereo unspecified)", "Melatonin receptor (Gallus gallus, UniProt P49288+P51050+P49285)", "no (0)"),
    ("Cn1c2c(c3cc(Cl)ccc31)C(CNC(=O)C1CCC1)CCC2 (stereo unspecified)", "Melatonin receptor (Gallus gallus, UniProt P49288+P51050+P49285)", "no (0)"),
    ("COc1ccc2c(c1)c1c(n2C)CCCCC1CNC(=O)C1CCC1 (stereo unspecified)", "Melatonin receptor (Gallus gallus, UniProt P49288+P51050+P49285)", "no (0)"),
    ("CCC(=O)NCC1CCc2c1c1cc(OC)ccc1n2C (stereo in doubt; 10i)", "Melatonin receptor (Gallus gallus, UniProt P49288+P51050+P49285)", "yes (1)"),
    ("CCCCC(=O)NCC1CCCCc2c1c1cc(OC)ccc1n2C (stereo unspecified)", "Melatonin receptor (Gallus gallus, UniProt P49288+P51050+P49285)", "no (0)"),
    ("Cn1c2c(c3ccccc31)C(CNC(=O)C1CC1)CCC2 (stereo unspecified)", "Melatonin receptor (Gallus gallus, UniProt P49288+P51050+P49285)", "no (0)"),
    ("COc1ccc2c(c1)c1c(n2C)CCCCC1CNC(C)=O (stereo unspecified)", "Melatonin receptor (Gallus gallus, UniProt P49288+P51050+P49285)", "yes (1)"),
    ("CC(=O)NCC1CCCc2c1c1ccccc1n2C (single isomer, unassigned; (+))", "Melatonin receptor (Gallus gallus, UniProt P49288+P51050+P49285)", "no (0)"),
    ("O=C(NCCc1c(-c2ccccc2)[nH]c2ccccc12)C1CCC1", "Melatonin receptor (Gallus gallus, UniProt P49288+P51050+P49285)", "no (0)"),
    ("COc1ccc2c(c1)c1c(n2C)CCCC1CNC(=O)C(F)(F)F (stereo unspecified)", "Melatonin receptor (Gallus gallus, UniProt P49288+P51050+P49285)", "yes (1)"),
    ("CCC(=O)NCC1CCCc2c1c1cc(OC)ccc1n2C (stereo unspecified)", "Melatonin receptor (Gallus gallus, UniProt P49288+P51050+P49285)", "yes (1)"),
    ("CCC(Br)C(=O)NC1CCc2[nH]c3ccccc3c2C1 (stereo unspecified)", "Melatonin receptor (Gallus gallus, UniProt P49288+P51050+P49285)", "no (0)"),
    ("CC(=O)NCC1CCCc2c1c1cc(C)ccc1n2C (stereo unspecified)", "Melatonin receptor (Gallus gallus, UniProt P49288+P51050+P49285)", "yes (1)"),
    ("COc1ccc2c(c1)c1c(n2C)CCCC1CNC(C)=O (single isomer, unassigned; (+))", "Melatonin receptor (Gallus gallus, UniProt P49288+P51050+P49285)", "yes (1)"),
    ("CCC(=O)NCC1CCCCc2c1c1cc(OC)ccc1n2C (stereo in doubt; 11i(-))", "Melatonin receptor (Gallus gallus, UniProt P49288+P51050+P49285)", "yes (1)"),
    ("COc1ccc2c(c1)c1c(n2C)CCCCC1CNC(=O)C1CC1 (stereo unspecified)", "Melatonin receptor (Gallus gallus, UniProt P49288+P51050+P49285)", "yes (1)"),
    ("Cn1c2c(c3ccccc31)C(CNC(=O)C1CCC1)CCCC2 (stereo unspecified)", "Melatonin receptor (Gallus gallus, UniProt P49288+P51050+P49285)", "no (0)"),
    ("CCC(=O)NCC1CCCc2c1c1ccccc1n2C (stereo unspecified)", "Melatonin receptor (Gallus gallus, UniProt P49288+P51050+P49285)", "no (0)"),
    ("CCCC(=O)NCC1CCc2c1c1ccccc1n2C (stereo unspecified)", "Melatonin receptor (Gallus gallus, UniProt P49288+P51050+P49285)", "no (0)"),
    ("CC(=O)NCC1CCCc2c1c1cc(Cl)ccc1n2C (stereo unspecified)", "Melatonin receptor (Gallus gallus, UniProt P49288+P51050+P49285)", "yes (1)"),
    ("COc1ccc2c(c1)c1c(n2C)CCC1CNC(=O)C1CC1 (stereo unspecified)", "Melatonin receptor (Gallus gallus, UniProt P49288+P51050+P49285)", "no (0)"),
    ("Cn1c2c(c3cc(Cl)ccc31)C(CNC(=O)C1CC1)CCC2 (stereo unspecified)", "Melatonin receptor (Gallus gallus, UniProt P49288+P51050+P49285)", "no (0)"),
    ("Cn1c2c(c3ccccc31)C(CNC(=O)C(F)(F)F)CCC2 (stereo unspecified)", "Melatonin receptor (Gallus gallus, UniProt P49288+P51050+P49285)", "no (0)"),
    ("CCCCC(=O)NCC1CCCc2c1c1cc(OC)ccc1n2C (stereo unspecified)", "Melatonin receptor (Gallus gallus, UniProt P49288+P51050+P49285)", "no (0)"),
    ("CCC(=O)NCC1CCCc2c1c1cc(OC(F)(F)F)ccc1n2C (stereo unspecified)", "Melatonin receptor (Gallus gallus, UniProt P49288+P51050+P49285)", "yes (1)"),
    ("Cn1c2c(c3ccccc31)C(CNC(=O)C1CC1)CCCC2 (stereo unspecified)", "Melatonin receptor (Gallus gallus, UniProt P49288+P51050+P49285)", "no (0)"),
    ("COc1ccc2[nH]c3c(c2c1)CC(NC(=O)C1CC1)CC3 (stereo unspecified)", "Melatonin receptor (Gallus gallus, UniProt P49288+P51050+P49285)", "no (0)"),
    ("CCC(=O)NCC1CCCc2c1c1cc(C)ccc1n2C (stereo unspecified)", "Melatonin receptor (Gallus gallus, UniProt P49288+P51050+P49285)", "yes (1)"),
    ("COc1ccc2c(c1)c1c(n2C)CCCC1CNC(=O)C1CC1 (stereo unspecified)", "Melatonin receptor (Gallus gallus, UniProt P49288+P51050+P49285)", "yes (1)"),
    ("CCCCC(=O)NCC1CCCc2c1c1ccccc1n2C (stereo unspecified)", "Melatonin receptor (Gallus gallus, UniProt P49288+P51050+P49285)", "no (0)"),
    ("Cn1c2c(c3ccccc31)C(CNC(=O)C(F)(F)F)CCCC2 (stereo unspecified)", "Melatonin receptor (Gallus gallus, UniProt P49288+P51050+P49285)", "no (0)"),
    ("CCC(=O)NCC1CCCCc2c1c1cc(OC)ccc1n2C (single isomer, unassigned; (+))", "Melatonin receptor (Gallus gallus, UniProt P49288+P51050+P49285)", "no (0)"),
]
